C. testosteroni S44 MIC data

compound=CC1(C)S[C@@H]2[C@H](NC(=O)Cc3ccccc3)C(=O)N2[C@H]1C(=O)O recorded_result="> 2050 µg/mL"
compound=C[C@@H](O)[C@H]1C(=O)N2C(C(=O)O)=C(SCCNC=N)C[C@H]12 recorded_result="8 µg/mL"

Moving on to another compound below.
Send back C. testosteroni S44 MIC of CC(C)(O/N=C(\C(=O)N[C@@H]1C(=O)N2C(C(=O)[O-])=C(C[n+]3ccccc3)CS[C@H]12)c1csc(N)n1)C(=O)O only. 128 µg/mL

---

C. testosteroni S44 MIC data

Some entries whose results are on file:
compound="Cc1nnc(SCC2=C(C(=O)O)N3C(=O)[C@@H](NC(=O)Cn4cnnn4)[C@H]3SC2)s1 [Cefazolin]" recorded_result="> 2050 µg/mL"
compound="CO[C@@]1(NC(=O)Cc2cccs2)C(=O)N2C(C(=O)O)=C(COC(N)=O)CS[C@@H]21 [Cefoxitin]" recorded_result="128 µg/mL"
compound="CC1(C)S[C@@H]2[C@H](NC(=O)[C@H](N)c3ccccc3)C(=O)N2[C@H]1C(=O)O [Ampicillin]" recorded_result="> 2050 µg/mL"
compound="CO/N=C(\\C(=O)N[C@@H]1C(=O)N2C(C(=O)[O-])=C(C[N+]3(C)CCCC3)CS[C@H]12)c1csc(N)n1 [Cefepime]" recorded_result="> 512 µg/mL"

Send back C. testosteroni S44 MIC of CO/N=C(\C(=O)N[C@@H]1C(=O)N2C(C(=O)O)=C(COC(N)=O)CS[C@H]12)c1ccco1 [Cefuroxime] only. > 128 µg/mL

Send back C. testosteroni S44 MIC of C[C@@H](O)[C@H]1C(=O)N2C(C(=O)O)=C(S[C@@H]3CN[C@H](C(=O)N(C)C)C3)[C@H](C)[C@H]12 [Meropenem] only. 1 µg/mL

Send back C. testosteroni S44 MIC of CC1=C(C(=O)O)N2C(=O)[C@@H](NC(=O)[C@H](N)c3ccccc3)[C@H]2SC1 [Cefalexin] only. > 1020 µg/mL

Send back C. testosteroni S44 MIC of CO/N=C(\C(=O)N[C@@H]1C(=O)N2C(C(=O)O)=C(CSc3nc(=O)c(=O)[nH]n3C)CS[C@H]12)c1csc(N)n1 [Ceftriaxone] only. > 1020 µg/mL

Reference for the values: paper PMC5744064
